Taken from PubChem BioAssay (NCI).

Tested on: MOLT-4 leukemia
METHOD DESCRIPTION: NCI-60 one-dose screen, 48 h (100 = growth as untreated, 0 = no growth, -100 = all killed)
SETTINGS: 10 µM unless noted
Compounds without any hit were thinned out: in the full panel of roughly 83,000, 20% have a hit.
Kindly apply the following: y if growth is less than 90%, n in every other case.

Past entries and their recorded results:
SMILES RECORD	CATEGORY
Cc1ccccc1NC(=O)c1cc2ccccc2cc1O	y
CCCCN(CCCC)CCCOC(=O)c1ccc(N)cc1	n
O=C(Nc1nc(-c2ccc(Cl)cc2)cs1)c1cc(O)c(O)c(O)c1	y

Query molecule follows.
Prompt: Criterion: growth strictly below 90%. Is it met by `COc1cccc(-c2nnc(N)o2)c1` ?
Response: n

###

Tested on: UO-31 renal
METHOD DESCRIPTION: NCI-60 one-dose screen, 48 h (100 = growth as untreated, 0 = no growth, -100 = all killed)
SETTINGS: 10 µM unless noted
Compounds without any hit were thinned out: in the full panel of roughly 83,000, 20% have a hit.
OBSERVATION TYPE: growth (%)
Could you give me the number in %? Just the number is fine.

MOLECULE	QUANTITATIVE RESULT
COc1ccc2c(c1)nc(N)c1c3cc(OC)c(OC)cc3cn21	49.8
S=c1[nH]nc2sc3ccccc3n12	84.2
O=C(C=C=Nc1ccccc1)C(=O)N=C=Cc1ccccc1	-51.3
O=C(/C=C/c1ccccc1)CC(c1ccccc1)N1CCOCC1 (stereo not drawn)	61.3
O=C(N1CCC(CN=c2cc3n(-c4ccc(Cl)cc4)c4ccccc4nc-3cc2Nc2ccc(Cl)cc2)CC1)N1CC1	-96.3
Cc1nn(-c2ccccc2)c(Cl)c1C(CC(=O)c1ccc(Cl)cc1)CC(=O)c1ccc(Cl)cc1	76.7
N#Cc1cnc2cc(OC[C@H](O)CO)c(NC(=O)CC3CSSC3)cc2c1Nc1ccc(OCc2cccc(F)c2)c(Cl)c1	47.6
O=C(Nc1cccc([N+](=O)[O-])c1)c1cccc(C(=O)Nc2cccc([N+](=O)[O-])c2)c1	56.7
c1ccc2cc(C[n+]3ccn(CCCCCCCn4cc[n+](Cc5ccc6ccccc6c5)c4)c3)ccc2c1	76.7
COc1cc(/C=C2\CCC/C(=C\c3ccc(OCC4CO4)c(OC)c3)C2=O)ccc1OCC1CO1 (stereo not drawn)	47.6

Prompt: I'd like to know its growth. The molecule in question is `COc1ccccc1[C@H]1c2[nH]c3ccccc3c2C[C@H]2C(=O)N(CCCCCCC(=O)NO)CC(=O)N12`
Response: 44.7

Prompt: Next molecule: `C[C@]12CC[C@@H]3c4ccc(O)cc4CC[C@H]3[C@@H]1CC[C@@H]2NS(=O)(=O)c1cccc(Br)c1`
Response: 36.3

Prompt: Next molecule: `Nc1nonc1-c1nc2ccccc2n1CC(=O)Nc1ccc2c(c1)COC2=O`
Response: 60.6

###

Test system: HS 578T breast
METHOD DESCRIPTION: NCI-60 one-dose screen, 48 h (100 = growth as untreated, 0 = no growth, -100 = all killed)
SETTINGS: 10 µM unless noted
Compounds without any hit were thinned out: in the full panel of roughly 83,000, 20% have a hit.
OBSERVATION TYPE: growth (%)
Could you give me the number in %? Just the number is fine.

Observe how each entry below is paired with its result.
COMPOUND	growth, %
COc1cc(/C=C2\COc3ccc(O)cc3C2=O)cc(OC)c1	77.4
C[N+]1(CCc2ccccc2)CCC(CCC2CC[N+](C)(CCc3ccccc3)CC2)CC1 (centres undefined)	103

Prompt: I'd like to know its growth. The compound in question is `C[n+]1ccc(Nc2ccc(NC(=O)c3ccc(Nc4cc[n+](C)c5ccc(N)cc45)cc3)cc2)cc1`
Response: 108

Prompt: Next compound: `CCC[C@H](N[C@@H](C)C(=O)N1[C@H](C(=O)O)C[C@@H]2CCCC[C@@H]21)C(=O)OCC`
Response: 98

Prompt: Next compound: `O=C(OCCBr)c1ccc(Cl)c([N+](=O)[O-])c1`
Response: -29.9

Prompt: Next compound: `O=c1c(O)cccn1CCCNCCCN(CCCn1cccc(O)c1=O)CCCn1cccc(O)c1=O`
Response: 120

Prompt: Next compound: `O=C1/C(=C/c2ccc3cccc(Cl)c3n2)SC(=S)N1CCc1ccc(O)cc1`
Response: 73.8
